Values from paper PMC5770598

Target: tubulin (dimeric)
Construct: gene alpha-tubulin; unassembled alpha/beta-tubulin dimer, 3900 RU amine-coupled to COOH5 chip
Assay: SPR, steady-state Scatchard plot
Format: binding
Conditions: tubulin dimers immobilised on COOH5 chip; pH 7.4, 10 mM Hepes, 150 mM NaCl, 2 mM MgCl2, 0.05% P20, 2% DMSO
pKd: −log10 of the molar value.
measuredEndpoint: pKd

> print(dat)
                                   compound  measuredendpoint  observedvalue
1  O=C(/C=C/c1cn(CC(O)CN2CCCCC2)c2ccccc12)c1ccc(Br)cc1 (stereo not shown) [SM15]               pKd           5.74
